Test system: Hunden, 24 Stunden nach zweistufiger Koronarligatur (Harris-Modell)
Assay: Two-stage coronary ligation in the dog (Harris model)
Assay type: in vivo, Hund
Condition Set: 5 min after 0,005 mmol/kg i.v.; mean x
Test Readout: Ektopische Kontraktionen in Prozent/min

Q) Please supply the value of reported Ektopische Kontraktionen in Prozent/min for the item `CCN(CC)CCCCCC(=O)N1c2ccc(Cl)cc2NC(=O)c2ccccc21`
A) 20 Prozent

Q) Supply recorded Ektopische Kontraktionen in Prozent/min for `CN(C)CCCCCC(=O)N1c2ccccc2NC(=O)c2ccccc21` here.
A) 30 Prozent

Q) // Input: `CCN(CC)CCCC(=O)N1c2ccccc2NC(=O)c2ccccc21` . Output its Ektopische Kontraktionen in Prozent/min only.
A) 26 Prozent

Q) Give the value of Ektopische Kontraktionen in Prozent/min reported for the following: `O=C1Nc2cc(Cl)ccc2N(C(=O)CCCCCCN2CCOCC2)c2ccccc21`
A) 21 Prozent
